# assayed-system: Retinoic acid receptor beta (Homo sapiens, UniProt P10826)
# Sequence (P10826 whole entry): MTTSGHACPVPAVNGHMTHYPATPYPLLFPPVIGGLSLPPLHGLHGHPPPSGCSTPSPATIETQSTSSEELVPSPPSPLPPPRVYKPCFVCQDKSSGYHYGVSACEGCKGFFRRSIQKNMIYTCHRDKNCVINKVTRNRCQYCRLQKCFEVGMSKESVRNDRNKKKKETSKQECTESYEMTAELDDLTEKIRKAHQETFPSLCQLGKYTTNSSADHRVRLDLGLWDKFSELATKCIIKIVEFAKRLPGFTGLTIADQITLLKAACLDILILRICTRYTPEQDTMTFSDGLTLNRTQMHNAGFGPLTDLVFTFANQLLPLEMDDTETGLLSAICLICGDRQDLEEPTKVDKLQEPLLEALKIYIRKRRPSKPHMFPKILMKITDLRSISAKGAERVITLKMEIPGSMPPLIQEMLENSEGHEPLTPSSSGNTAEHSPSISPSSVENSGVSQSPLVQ
# assay-protocol: Antagonist activity of TTNPB (10 nM) function at retinoic acid receptor beta
assay-endpoint: IC50 (nM)

smiles-text	assayed-system	measurement-units	measured-value
Cc1ccc(C2=C(/C=C/C#Cc3ccc(C(=O)O)cc3)C(C)(C)CCC2)cc1	Retinoic acid receptor beta (Homo sapiens, UniProt P10826)	nM	22

(1) Cc1ccc(C2=CCC(C)(C)c3ccc(C#Cc4ccc(C(=O)O)cc4)cc32)cc1
(2) CCc1ccc(C2=C(/C=C/C#Cc3ccc(C(=O)O)cc3)C(C)(C)CCC2)cc1
Enquiry: Returns the identifier with the smallest measured IC50 among 1 and 2 . Kindly give the label for the entry you pick.
Return: 1
(1: 20 nM, 2: 40 nM)

###

# assayed-system: Retinoic acid receptor alpha (Homo sapiens)
# Sequence (P10276 whole entry): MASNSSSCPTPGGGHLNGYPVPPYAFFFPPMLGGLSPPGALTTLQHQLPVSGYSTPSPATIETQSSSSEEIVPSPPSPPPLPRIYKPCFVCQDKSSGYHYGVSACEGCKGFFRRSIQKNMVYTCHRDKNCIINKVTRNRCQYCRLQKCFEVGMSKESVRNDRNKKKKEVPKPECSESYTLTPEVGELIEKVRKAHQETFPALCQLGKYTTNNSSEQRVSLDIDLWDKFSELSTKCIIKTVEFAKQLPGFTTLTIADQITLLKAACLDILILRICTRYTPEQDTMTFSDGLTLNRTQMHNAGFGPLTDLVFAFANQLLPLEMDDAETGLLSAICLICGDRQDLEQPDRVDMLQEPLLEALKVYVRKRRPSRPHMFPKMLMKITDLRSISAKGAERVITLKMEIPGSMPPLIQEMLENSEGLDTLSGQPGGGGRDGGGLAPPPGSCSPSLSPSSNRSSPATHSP
# assay-protocol: Efficacy of TTNPB (10 nM) function at retinoic acid receptor alpha, antagonized at highest dose tested (10⁴ nM)
assay-endpoint: Efficacy (%)

smiles-text	assayed-system	Efficacy / %
CCc1ccc(C2=C(/C=C/C#Cc3ccc(C(=O)O)cc3)C(C)(C)CCC2)cc1	Retinoic acid receptor alpha (Homo sapiens)	97
Cc1ccc(C2=CCC(C)(C)C=C2/C=C/C#Cc2ccc(C(=O)O)cc2)cc1	Retinoic acid receptor alpha (Homo sapiens)	96
Cc1ccc(C2=CCC(C)(C)c3ccc(C#Cc4ccc(C(=O)O)cc4)cc32)cc1	Retinoic acid receptor alpha (Homo sapiens)	91
Cc1ccc(C2=C(/C=C/C#Cc3ccc(C(=O)O)cc3)C(C)(C)CCC2)cc1	Retinoic acid receptor alpha (Homo sapiens)	93
CC1(C)CCCC(c2ccc(C(C)(C)C)cc2)=C1/C=C/C#Cc1ccc(C(=O)O)cc1	Retinoic acid receptor alpha (Homo sapiens)	94

###

# assayed-system: Retinoic acid receptor alpha (Homo sapiens)
# assay-protocol: Ability to inhibit TTNPB-induced transactivation at retinoic acid receptor alpha
pEC50: −log10 of the molar value.
assay-endpoint: pEC50

(a) CC1=C(/C=C/C#Cc2ccc(C(=O)O)cc2)C(C)(C)CCC1
(b) CC1(C)CCC(C)(C)c2cc(C/C=C/c3ccc(C(=O)O)cc3)ccc21
Enquiry: Kindly identify which of a and b has the larger recorded pEC50 value. // respond with label for picked entry
Return: b
(b: 7.52, a: 6.36)

###

# assayed-system: Retinoic acid receptor gamma (Homo sapiens, UniProt P13631)
# Sequence (P13631 whole entry): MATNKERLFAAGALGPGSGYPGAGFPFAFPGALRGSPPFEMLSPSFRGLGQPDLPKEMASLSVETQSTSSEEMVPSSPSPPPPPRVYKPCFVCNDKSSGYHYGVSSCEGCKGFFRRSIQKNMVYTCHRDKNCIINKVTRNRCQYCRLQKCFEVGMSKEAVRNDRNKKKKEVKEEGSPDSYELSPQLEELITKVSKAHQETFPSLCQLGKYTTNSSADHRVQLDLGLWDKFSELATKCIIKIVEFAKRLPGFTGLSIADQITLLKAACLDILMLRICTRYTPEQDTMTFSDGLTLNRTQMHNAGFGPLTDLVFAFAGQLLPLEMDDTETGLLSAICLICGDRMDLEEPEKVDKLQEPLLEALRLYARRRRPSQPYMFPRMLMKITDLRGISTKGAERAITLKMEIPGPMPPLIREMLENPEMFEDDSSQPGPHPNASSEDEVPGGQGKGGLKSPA
# assay-protocol: Ability to inhibit TTNPB-induced transactivation at retinoic acid receptor gamma
assay-endpoint: pEC50
In plain terms, pEC50 is the concentration in mol/L turned into minus its base-10 logarithm.

Enquiry: Dear colleague, I am looking for the recorded pEC50 of the following compound: CC1(C)CCC(C)(C)c2cc(C/C=C/c3ccc(C(=O)O)cc3)ccc21
Return: 8.40

###

# assayed-system: Retinoic acid receptor gamma (Homo sapiens, UniProt P13631)
# assay-protocol: Antagonist activity of TTNPB (10 nM) function at retinoic acid receptor gamma
assay-endpoint: IC50 (nM)

smiles-text	measurement-units	IC50
Cc1ccc(C2=CCC(C)(C)c3ccc(C#Cc4ccc(C(=O)O)cc4)cc32)cc1	nM	3

(A) Cc1ccc(C2=C(/C=C/C#Cc3ccc(C(=O)O)cc3)C(C)(C)CCC2)cc1
(B) CCc1ccc(C2=C(/C=C/C#Cc3ccc(C(=O)O)cc3)C(C)(C)CCC2)cc1
Enquiry: Response body: label of entry with the larger IC50; valid values A , B . Answer with the label corresponding to your selection.
Return: A
